Molecular target: EGR1 (Homo sapiens, UniProt P18146 P18146:1-543)
Sequence (P18146 whole entry, one chain of several): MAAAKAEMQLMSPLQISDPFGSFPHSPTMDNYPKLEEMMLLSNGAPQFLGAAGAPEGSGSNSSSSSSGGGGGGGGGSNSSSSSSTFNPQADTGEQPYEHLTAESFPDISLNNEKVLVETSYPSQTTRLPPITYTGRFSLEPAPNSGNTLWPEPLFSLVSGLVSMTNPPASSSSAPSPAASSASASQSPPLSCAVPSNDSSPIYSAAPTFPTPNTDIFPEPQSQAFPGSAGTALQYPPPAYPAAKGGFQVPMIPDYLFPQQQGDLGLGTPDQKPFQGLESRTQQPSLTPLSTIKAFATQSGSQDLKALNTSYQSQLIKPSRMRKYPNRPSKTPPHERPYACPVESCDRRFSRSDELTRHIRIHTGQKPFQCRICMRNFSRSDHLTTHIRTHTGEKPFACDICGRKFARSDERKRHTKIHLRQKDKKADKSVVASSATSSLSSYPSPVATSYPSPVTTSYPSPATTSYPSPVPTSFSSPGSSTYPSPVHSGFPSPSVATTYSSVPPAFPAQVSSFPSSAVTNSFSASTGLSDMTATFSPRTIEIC
Assay: competition; ELISA vs 128 nM biotinylated SEQ 40 probe, 10 ug nuclear extract
Conditions: protein: extract; tags: endogenous in nuclear extract of TPA-stimulated K-562 cells (Activemotif)
Kindly state pIC50 for each of the entries shown.
To interpret pIC50, take it as minus log10 of a concentration measured in moles per litre.

In: I have this binder here, SEQ ID NO 42 fused EGR1 sites decoy (dsDNA) DNA 1: GTATGCGTGGGCGGTGGGCGTAG DNA 2: CTACGCCCACCGCCCACGCATAC , and I need its recorded pIC50.
Out: 7.00

In: I have this binder here, SEQ ID NO 41 EGR1 consensus decoy (dsDNA) DNA 1: GATGCGTGGGCGTAGG DNA 2: CCTACGCCCACGCATC , and I need its recorded pIC50.
Out: 6.60
